Experiment: Pharmacokinetics of resveratrol-containing particles in orally dosed Sprague-Dawley rats
Assay type: in vivo
Settings: rat, plasma, oral, 20 mg/kg
MEASURED_PARAMETER: concentration at 2 h (ng/mL)

1) Oc1ccc(C=Cc2cc(O)cc(O)c2)cc1 [Unencapsulated Resveratrol, Resveratrol]: 47.2

====

Assay: Pharmacokinetics of resveratrol-containing particles in orally dosed Sprague-Dawley rats
Type: in vivo
Conditions: rat, plasma, po, 20 mg/kg, read-out: AUC(0-x)
MEASURED_PARAMETER: AUC (ng·h/mL)

1. Oc1ccc(C=Cc2cc(O)cc(O)c2)cc1 [Unencapsulated Resveratrol, Resveratrol]: 82.8
